The measured values listed here are drawn from patent US6867207B2.

- System: IL-5 production
- Test method notes: In vitro inhibition of IL-5 production in human blood (phytohemagglutinin-stimulated whole blood, ELISA);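 further: values marked with an asterisk were tested at 10 µM and unmarked values at 1 µM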
- Assay type: cell-based
- Details: test dose 1×10^−6 M, 48 hours
Each entry gets label 0 if its % inh. (percentage inhibition of IL-5 production) stays under 80%, and label 1 if its % inh. (percentage inhibition of IL-5 production) is 80% or above.

query: Check if % inh. (percentage inhibition of IL-5 production) >= 80% (inclusive). Item: CN(C)Cc1sc(C(c2ccc(Cl)cc2)c2c(Cl)cc(-n3ncc(=O)[nH]c3=O)cc2Cl)nc1-c1cccc(F)c1 (racemic)
result: label 1

query: Check if % inh. (percentage inhibition of IL-5 production) >= 80% (inclusive). Item: O=c1cnn(-c2ccc(C(c3ccncc3)c3ccc(Cl)cc3)c(Cl)c2)c(=O)[nH]1 (stereo not shown)
result: label 0

query: Check if % inh. (percentage inhibition of IL-5 production) >= 80% (inclusive). Item: O=c1cnn(-c2cc(Cl)c(C(Sc3nc(-c4ccc(F)cc4F)cs3)c3ccc(Cl)c(C(F)(F)F)c3)c(Cl)c2)c(=O)[nH]1 (stereo not shown)
result: label 1

query: Check if % inh. (percentage inhibition of IL-5 production) >= 80% (inclusive). Item: O=c1cnn(-c2cc(Cl)c(C(Sc3ccncn3)c3ccc(Cl)cc3)c(Cl)c2)c(=O)[nH]1 (racemic)
result: label 1

query: Check if % inh. (percentage inhibition of IL-5 production) >= 80% (inclusive). Item: Cc1sc(C(C)(c2ccc(Cl)c(C(F)(F)F)c2)c2c(Cl)cc(-n3ncc(=O)[nH]c3=O)cc2Cl)nc1-c1ccccc1 (racemic)
result: label 1

query: Check if % inh. (percentage inhibition of IL-5 production) >= 80% (inclusive). Item: O=c1cnn(-c2ccc(C(O)(c3ccc(Cl)cc3)c3cccnc3)c(Cl)c2)c(=O)[nH]1 (stereo not shown)
result: label 0

query: Check if % inh. (percentage inhibition of IL-5 production) >= 80% (inclusive). Item: Cc1nc(-c2ccccc2Cl)sc1C(c1ccc(Cl)cc1)c1c(Cl)cc(-n2ncc(=O)[nH]c2=O)cc1Cl (racemic)
result: label 0

query: Check if % inh. (percentage inhibition of IL-5 production) >= 80% (inclusive). Item: CC(c1ccc(Cl)cc1)(c1nnc(-c2ccccc2)o1)c1ccc(-n2ncc(=O)[nH]c2=O)cc1Cl (racemic)
result: label 0

query: Check if % inh. (percentage inhibition of IL-5 production) >= 80% (inclusive). Item: O=c1cnn(-c2cc(Cl)c(C(Sc3nnc(-c4ccccc4)o3)c3ccc(Cl)c(C(F)(F)F)c3)c(Cl)c2)c(=O)[nH]1 (stereo not shown)
result: label 1

query: Check if % inh. (percentage inhibition of IL-5 production) >= 80% (inclusive). Item: CN1CCCC(c2nnc(C(c3ccc(Cl)cc3)c3c(Cl)cc(-n4ncc(=O)[nH]c4=O)cc3Cl)o2)C1 (mixture of isomers)
result: label 0

query: Check if % inh. (percentage inhibition of IL-5 production) >= 80% (inclusive). Item: CN(CCc1ccccc1)Cc1sc(C(c2ccc(Cl)cc2)c2c(Cl)cc(-n3ncc(=O)[nH]c3=O)cc2Cl)nc1-c1ccccc1 (racemic)
result: label 1

query: Check if % inh. (percentage inhibition of IL-5 production) >= 80% (inclusive). Item: O=c1cnn(-c2cc(Cl)c(C(c3ccc(Cl)c(C(F)(F)F)c3)c3nc(-c4ccccc4Cl)cs3)c(Cl)c2)c(=O)[nH]1 (racemic)
result: label 1

---

- Tested on: IL-5 production
- Test method notes: In vitro inhibition of IL-5 production in human blood (phytohemagglutinin-stimulated whole blood, ELISA);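 further: values marked with an asterisk were tested at 10 µM and unmarked values at 1 µM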
- Type: cell-based
- Details: test dose 1×10^−6 M, 48 hours
Answer each item with its documented % inh. (percentage inhibition of IL-5 production).
Unit % implied. Number only.

query: Would you kindly share the measured % inh. (percentage inhibition of IL-5 production) for O=C(NC1CCN(Cc2ccccc2)CC1)c1sc(C(c2ccc(Cl)cc2)c2c(Cl)cc(-n3ncc(=O)[nH]c3=O)cc2Cl)nc1-c1ccccc1 (racemic) [Comp 305] ?
result: 51

query: Would you kindly share the measured % inh. (percentage inhibition of IL-5 production) for O=c1cnn(-c2cc(Cl)c(C(Sc3nccc(-c4ccccc4)n3)c3ccc(Cl)c(C(F)(F)F)c3)c(Cl)c2)c(=O)[nH]1 (racemic) [Compound 342] ?
result: 93

query: Would you kindly share the measured % inh. (percentage inhibition of IL-5 production) for O=C(Cc1sc(C(c2ccc(Cl)cc2)c2c(Cl)cc(-n3ncc(=O)[nH]c3=O)cc2Cl)nc1-c1ccccc1)N1CCOCC1 (racemic) [Comp 276] ?
result: 91

query: Would you kindly share the measured % inh. (percentage inhibition of IL-5 production) for COc1cccc(-c2csc(C(c3ccc(Cl)cc3)c3c(Cl)cc(-n4ncc(=O)[nH]c4=O)cc3Cl)n2)c1 (racemic) [Comp 24] ?
result: 74

query: Would you kindly share the measured % inh. (percentage inhibition of IL-5 production) for O=c1cnn(-c2cc(Cl)c(C(c3ccc(Cl)cc3)c3nc(-c4ccccc4)c(C4CCCCC4)s3)c(Cl)c2)c(=O)[nH]1 (racemic) [Comp 284] ?
result: 91

query: Would you kindly share the measured % inh. (percentage inhibition of IL-5 production) for CN1CCN(c2ccc(-c3nnc(C(c4ccc(Cl)cc4)c4c(Cl)cc(-n5ncc(=O)[nH]c5=O)cc4Cl)o3)cc2)CC1 (racemic) [Compound 199] ?
result: 43

query: Would you kindly share the measured % inh. (percentage inhibition of IL-5 production) for CN(C)C(=O)CCc1sc(C(c2ccc(Cl)cc2)c2c(Cl)cc(-n3ncc(=O)[nH]c3=O)cc2Cl)nc1-c1ccccc1 (racemic) [Comp 281] ?
result: 91

query: Would you kindly share the measured % inh. (percentage inhibition of IL-5 production) for O=c1cnn(-c2ccc(C(Sc3nccs3)c3ccc(Cl)cc3)c(Cl)c2)c(=O)[nH]1 (racemic) [Compound 63] ?
result: 68

query: Would you kindly share the measured % inh. (percentage inhibition of IL-5 production) for CN(C)CCNC(=O)Cc1sc(C(c2ccc(Cl)cc2)c2c(Cl)cc(-n3ncc(=O)[nH]c3=O)cc2Cl)nc1-c1ccccc1 (racemic) [Comp 317] ?
result: 67

query: Would you kindly share the measured % inh. (percentage inhibition of IL-5 production) for Cl.O=c1cnn(-c2cc(Cl)c(C(c3ccc(Cl)cc3)c3nc(C4CCNCC4)cs3)c(Cl)c2)c(=O)[nH]1 (racemic) [Compound 230] ?
result: 79

query: Would you kindly share the measured % inh. (percentage inhibition of IL-5 production) for Cc1ccccc1-c1nc(C(c2ccc(Cl)cc2)c2c(Cl)cc(-n3ncc(=O)[nH]c3=O)cc2Cl)cs1 (racemic) [Compound 374] ?
result: 94

query: Would you kindly share the measured % inh. (percentage inhibition of IL-5 production) for Nc1cc(SC(c2ccc(Cl)cc2)c2ccc(-n3ncc(=O)[nH]c3=O)cc2Cl)nc(N)n1 (racemic) [Compound 68] ?
result: 60

query: Would you kindly share the measured % inh. (percentage inhibition of IL-5 production) for Cn1c(C(c2ccc(Cl)cc2)c2c(Cl)cc(-n3ncc(=O)[nH]c3=O)cc2Cl)cnc1-c1ccccc1 (centres unmarked) [Comp 430] ?
result: 89

query: Would you kindly share the measured % inh. (percentage inhibition of IL-5 production) for CCCc1sc(C(c2ccc(Cl)cc2)c2c(Cl)cc(-n3ncc(=O)[nH]c3=O)cc2Cl)nc1-c1ccccc1 (racemic) [Comp 245] ?
result: 98

query: Would you kindly share the measured % inh. (percentage inhibition of IL-5 production) for Nc1ccccc1-c1nnc(C(c2ccc(Cl)cc2)c2c(Cl)cc(-n3ncc(=O)[nH]c3=O)cc2Cl)o1 (racemic) [Compound 211] ?
result: 83

query: Would you kindly share the measured % inh. (percentage inhibition of IL-5 production) for O=c1cnn(-c2cc(Cl)c(C(c3ccncc3)c3ccc(Cl)cc3)c(Cl)c2)c(=O)[nH]1 (centres unmarked) [Comp 113] ?
result: 76

query: Would you kindly share the measured % inh. (percentage inhibition of IL-5 production) for Cl.O.O=c1cnn(-c2cc(Cl)c(C(c3ccc(Cl)cc3)c3csc(-c4ccncc4)n3)c(Cl)c2)c(=O)[nH]1 (racemic) [Compound 366] ?
result: 93

query: Would you kindly share the measured % inh. (percentage inhibition of IL-5 production) for O=c1cnn(-c2cc(Cl)c(C(c3ccc(Cl)cc3)c3sc(-c4ccccc4)nc3-c3ccccc3Cl)c(Cl)c2)c(=O)[nH]1 (racemic) [Compound 145] ?
result: 37

query: Would you kindly share the measured % inh. (percentage inhibition of IL-5 production) for Cc1cc(C(C)(c2nc(-c3ccccc3)cs2)c2ccc(-n3ncc(=O)[nH]c3=O)cc2Cl)ccc1Cl (racemic) [Comp 247] ?
result: 80

query: Would you kindly share the measured % inh. (percentage inhibition of IL-5 production) for COc1ccc(-c2ccnc(SC(c3ccc(Cl)cc3)c3ccc(-n4ncc(=O)[nH]c4=O)cc3Cl)n2)cc1 (racemic) [Compound 79] ?
result: 74

query: Would you kindly share the measured % inh. (percentage inhibition of IL-5 production) for Cn1cc(-c2ccccc2)nc1C(c1ccc(Cl)cc1)c1c(Cl)cc(-n2ncc(=O)[nH]c2=O)cc1Cl (centres unmarked) [Comp 425] ?
result: 70

query: Would you kindly share the measured % inh. (percentage inhibition of IL-5 production) for O=c1cnn(-c2cc(Cl)c(C(c3ccc(Cl)cc3)c3csc(-c4cccc(Cl)c4)n3)c(Cl)c2)c(=O)[nH]1 (racemic) [Compound 371] ?
result: 88

query: Would you kindly share the measured % inh. (percentage inhibition of IL-5 production) for CCOC(=O)c1nnc(C(c2ccc(Cl)cc2)c2c(Cl)cc(-n3ncc(=O)[nH]c3=O)cc2Cl)o1 (racemic) [Compound 186] ?
result: 8

query: Would you kindly share the measured % inh. (percentage inhibition of IL-5 production) for O=c1cnn(-c2ccc(C(c3ccc(Cl)cc3)c3sc(-c4ccccc4)nc3-c3ccccc3Cl)c(Cl)c2)c(=O)[nH]1 (racemic) [Compound 144] ?
result: 40

query: Would you kindly share the measured % inh. (percentage inhibition of IL-5 production) for Cc1sc(C(c2ccc(Cl)cc2)c2c(Cl)cc(-n3ncc(=O)[nH]c3=O)cc2Cl)nc1-c1ccccc1F (racemic) [Comp 259] ?
result: 95

query: Would you kindly share the measured % inh. (percentage inhibition of IL-5 production) for CN(C)c1ccc(-c2nnc(C(c3ccc(Cl)cc3)c3c(Cl)cc(-n4ncc(=O)[nH]c4=O)cc3Cl)o2)cc1 (racemic) [Compound 180] ?
result: 54
